Please provide measured IC50 for the entries that follow.
- target_or_system: dopamine transporter (Homo sapiens, UniProt Q01959)
- Sequence (Q01959 whole entry): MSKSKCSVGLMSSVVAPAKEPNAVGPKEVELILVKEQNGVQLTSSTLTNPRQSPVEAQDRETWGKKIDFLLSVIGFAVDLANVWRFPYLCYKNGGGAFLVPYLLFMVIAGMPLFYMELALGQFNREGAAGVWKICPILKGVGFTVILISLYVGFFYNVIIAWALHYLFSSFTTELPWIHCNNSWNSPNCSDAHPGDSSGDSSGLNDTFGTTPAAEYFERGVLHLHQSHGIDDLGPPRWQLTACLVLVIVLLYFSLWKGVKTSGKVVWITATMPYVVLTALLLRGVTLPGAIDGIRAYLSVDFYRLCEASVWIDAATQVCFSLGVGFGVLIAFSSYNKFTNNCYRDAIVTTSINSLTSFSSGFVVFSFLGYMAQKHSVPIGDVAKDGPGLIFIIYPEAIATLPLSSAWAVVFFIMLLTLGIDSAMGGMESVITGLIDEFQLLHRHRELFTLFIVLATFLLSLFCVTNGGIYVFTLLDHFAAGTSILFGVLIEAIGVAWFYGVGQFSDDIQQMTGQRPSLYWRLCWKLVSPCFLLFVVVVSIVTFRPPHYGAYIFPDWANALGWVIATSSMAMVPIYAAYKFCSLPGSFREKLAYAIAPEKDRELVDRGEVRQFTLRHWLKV
- procedure_details: DA uptake: displacement of dopamine ligands in vitro (methods of Gu et al.)
- cond: DA Uptake, Uptake Profile (IC50, nM), displacement of dopamine ligands in vitro

Query the reported IC50 for dopamine transporter (Homo sapiens, UniProt Q01959); item: O=C(CN1CCCC(COc2ccccc2)C1)c1ccc(Cl)cc1 (stereo not drawn) [compound 32]
> 1000 nM

Same again, this time with OCC1CCCN(CC2(c3ccc(Cl)cc3)CCC2)C1 (stereo not drawn) [compound 2]
< 1000 nM

// same read-out, input: FC(F)(F)c1ccc(OCC2CN(CC3(c4ccc(Cl)cc4)CCC3)CCO2)cc1 (stereo not drawn) [compound 102]
< 100 nM

Same lookup for Clc1ccc(C2(CN3CCCC(COc4ccccc4)C3)CCC2)cc1 (single isomer, unassigned) [compound 5] , please.
< 1000 nM

Please do the same for OC(CN1CCCC(COc2ccc(C(F)(F)F)cc2)C1)C1(c2ccccc2OC(F)(F)F)CCC1 (single isomer, unassigned) [compound 228] as well.
> 1000 nM

Input OC[C@H]1[C@@H](COc2ccc(C(F)(F)F)cc2)CCCN1CC1(c2ccc(Cl)cc2)CCC1 (single isomer, unassigned) [compound 132]
< 10 nM

Another: O=C(CN1CCCC(COc2ccc(C(F)(F)F)cc2)C1)C1(c2ccc(Cl)cc2)CCC1 (stereo not drawn) [compound 23]
< 100 nM

Do the same for O=C(CN1CCC[C@H](COc2ccc(C(F)(F)F)cc2)C1)C1(c2ccc(Cl)cc2)CCC1 [compound 123] please
< 10 nM

Item: OC(CN1CCCC(CCc2ccccc2)C1)c1ccc(Cl)cc1 (single isomer, unassigned) [compound 144]
< 10 nM

Follow-up item: FC(F)(F)c1ccc(OCC2CCCN(CC3COc4ccccc4O3)C2)cc1 (single isomer, unassigned) [compound 177]
> 1000 nM

Please give the result for COC(CC1CCCN(CC2(c3ccc(Cl)cc3)CCC2)C1)c1ccccc1 (stereo in doubt) [compound 184] too.
< 1000 nM

Try this compound next: FC(F)(F)c1ccc(OCC2CCCN(CCc3ccc(-c4ccccc4)cc3)C2)cc1 (stereo not drawn) [compound 181]
> 1000 nM

Field entry: CC(C)(CN1CCCC(CO)C1)c1ccc(Cl)cc1 (stereo not drawn) [compound 80]
> 1000 nM

And OC(CN1CCCC(CCc2ccc(OC(F)(F)F)cc2)C1)c1ccc(Cl)cc1 (stereo not drawn) [compound 201] ?
< 10 nM

Also O=C(CN1CCC[C@@H](CCc2ccccc2)C1)c1ccc(Cl)cc1 [compound 145] , if possible.
< 1000 nM

What about O=C(CN1CCCC(CCc2ccc(C(F)(F)F)cc2)C1)C1(c2ccc(Cl)cc2)CCC1 (stereo not drawn) [compound 155] ?
< 100 nM

Query FC(F)(F)c1ccc(OCC2CCCCN(CC3(c4ccc(Cl)cc4)CCC3)C2)cc1 (stereo not drawn) [compound 168] next
< 100 nM

What do we get for O[C@H](CN1CCC[C@H](COc2ccc(C(F)(F)F)cc2)C1)C1(c2ccc(Cl)cc2)CCC1 [compound 124] ?
< 10 nM

Now consider O=C(CN1CCC[C@@H](COc2ccc(C(F)(F)F)cc2)C1)C1(c2ccc(Cl)cc2)CCC1 [compound 128] and answer again.
< 100 nM

Note, next up: OC(CN1CCCC(CCc2ccc(C(F)(F)F)cc2)C1)C1(c2ccc(Cl)cc2)CCC1 (single isomer, unassigned) [compound 192]
< 10 nM

# iterate: Clc1ccc(C2(CN3CCC[C@@H](COc4ccccc4)C3)CCC2)cc1 [compound 72]
< 1000 nM

Also, CN(C)CC(Oc1ccc(C(F)(F)F)cc1)C1CCCN(CC2(c3ccc(Cl)cc3)CCC2)C1 (racemic) [compound 175] please.
< 1000 nM

And for OC(CN1CCCC(CCc2ccc(C(F)(F)F)cc2)C1)c1ccc(Cl)cc1 (single isomer, unassigned) [compound 152] ?
< 1000 nM

Entry CC(O)(CN1CCC[C@@H](CCc2ccccc2)C1)c1ccc(Cl)cc1 (stereo partly drawn) [compound 197] please
< 1000 nM

Would you mind doing FC(F)(F)c1ccc(OC[C@H]2CCCN(CC3(c4ccc(Cl)cc4)CCC3)C2)cc1 [compound 115] as well?
< 100 nM

And what about the compound OC(CN1CCCC(CCc2ccc(C(F)(F)F)cc2)C1)C1(c2ccc(Cl)cc2)CCC1 (single isomer, unassigned) [compound 193] ?
< 10 nM

Would you kindly repeat that for CO[C@H](CN1CCC[C@@H](COc2ccc(C(F)(F)F)cc2)C1)C1(c2ccc(Cl)cc2)CCC1 [compound 161] ?
< 10 nM

One more compound: OC(CN1CCCC(COc2ccc(C(F)(F)F)cc2)C1)C1(c2ccccc2OC(F)(F)F)CCC1 (single isomer, unassigned) [compound 227]
< 1000 nM

What about FC(F)(F)c1ccc(OCC2CN(CC3(c4ccc(Cl)cc4)CCC3)C2)cc1 [compound 105] ?
< 10 nM

Would you kindly repeat that for CO[C@@H](CN1CCC[C@@H](COc2ccc(C(F)(F)F)cc2)C1)C1(c2ccc(Cl)cc2)CCC1 [compound 160] ?
< 100 nM
